Target: C6 plasma membrane associated metalloendoprotease (rat C6 glioblastoma cells) (rat)
Assay: cell-based or functional assay
The star is where a group is joined. Cbz = O=C(OCc1ccccc1)*
IC50 on CNS myelin [µM], half maximal inhibition of C6 cell spreading listing for selected binders.
Could you write the number and then its unit?

binder	recorded.result
Cbz-Ala-Phe-Tyr-NH2 (SMILES C[C@H](NC(=O)OCc1ccccc1)C(=O)N[C@@H](Cc1ccccc1)C(=O)N[C@@H](Cc1ccc(O)cc1)C(N)=O) [cbz-AFY-NH2]	20 µM
H-FAFY-NH2 [FAFY-NH2]	300 µM
H-Ala-Phe-Tyr-NH2 [AFY-NH2]	1000 µM
Cbz-Gly-Phe-Phe-OH (SMILES O=C(CNC(=O)OCc1ccccc1)N[C@@H](Cc1ccccc1)C(=O)N[C@@H](Cc1ccccc1)C(=O)O) [cbz-GFF]	300 µM

Consider the record given below.
State the recorded IC50 on CNS myelin [µM], half maximal inhibition of C6 cell spreading for this entry: Cbz-FAFY-NH2 (SMILES C[C@H](NC(=O)[C@H](Cc1ccccc1)NC(=O)OCc1ccccc1)C(=O)N[C@@H](Cc1ccccc1)C(=O)N[C@@H](Cc1ccc(O)cc1)C(N)=O) [carbobenzoxy-Phe-Ala-Phe-Tyr-amide] 3 µM
